Would you kindly list log10(IC50) for each of these compounds?
Where a name gives a salt, the structure may show the parent alone.
Values below are the log10 of the recorded IC50, with nM as the unit.

The reported human factor XIa (Homo sapiens, UniProt P03951) log10(IC50) of NC[C@H]1CC[C@H](C(=O)N[C@@H](Cc2cccc(-c3ccc(C(=O)NCCN4CCCC4)cc3)c2)C(=O)Nc2ccc(-c3nnn[nH]3)cc2)CC1 [Example 41, hydrochloride] is 0.92

Reported human factor XIa (Homo sapiens, UniProt P03951) log10(IC50) for item NC[C@H]1CC[C@H](C(=O)N[C@@H](Cc2cccc(-c3cncc(S(=O)(=O)NC4CCNCC4)c3)c2)C(=O)Nc2ccc(-c3nnc(Cl)[nH]3)cc2)CC1 [Example 106, hydrochloride] was 0.76

I looked up Cc1cnccc1-c1cccc(C[C@H](NC(=O)[C@H]2CC[C@H](CN)CC2)C(=O)Nc2ccc3[nH]c(=O)[nH]c3c2)c1 [Example 75, hydrochloride] and its log10(IC50) for human factor XIa (Homo sapiens, UniProt P03951) was 1.54

The compound Cc1ccc2[nH]ncc2c1-c1cccc(C[C@H](NC(=O)[C@H]2CC[C@H](CN)CC2)C(=O)Nc2ccc(-c3noc(=O)[nH]3)cc2)c1 [Example 87, hydrochloride] , tested on human factor XIa (Homo sapiens, UniProt P03951), showed log10(IC50) of 0.54

I looked up COCCOCCOCCNC(=O)c1cccc(-c2cc(C[C@H](NC(=O)[C@H]3CC[C@H](CN)CC3)C(=O)Nc3ccc(-c4nnn[nH]4)cc3)ccc2C)c1 [Example 18, hydrochloride] and its log10(IC50) for human factor XIa (Homo sapiens, UniProt P03951) was 0.76

Note to self: log10(IC50) of Cc1cc(C(=O)N[C@@H]2CCCNC2=O)ccc1-c1cccc(C[C@H](NC(=O)[C@H]2CC[C@H](CN)CC2)C(=O)Nc2ccc3nc(C(F)(F)C(F)(F)F)[nH]c3c2)c1 [Example 63, hydrochloride] with human factor XIa (Homo sapiens, UniProt P03951) was 1.72

Observed log10(IC50), human factor XIa (Homo sapiens, UniProt P03951), Cc1ccc(C[C@H](NC(=O)[C@H]2CC[C@H](CN)CC2)C(=O)Nc2ccc(-c3nnn[nH]3)cc2)cc1-c1cccc(C(=O)NC2CCN(C(C)C)CC2)c1 [Example 19, hydrochloride] : 0.78

Short answer on human factor XIa (Homo sapiens, UniProt P03951) for CN1CCN(C(=O)c2cccc(-c3cccc(C[C@H](NC(=O)[C@H]4CC[C@H](CN)CC4)C(=O)Nc4ccc(-c5nnc(Cl)[nH]5)cc4)c3)c2)CC1 [Example 24, hydrochloride] , log10(IC50): 0.63

Entry CN(C)CCCOc1ccc(-c2cccc(C[C@H](NC(=O)[C@H]3CC[C@H](CN)CC3)C(=O)Nc3ccc(-c4nnn[nH]4)cc3)c2)cn1 [Example 59, hydrochloride] ; assay system human factor XIa (Homo sapiens, UniProt P03951); log10(IC50) recorded at 0.86

Known value: human factor XIa (Homo sapiens, UniProt P03951) log10(IC50) of the compound Cc1ccc(S(=O)(=O)NCc2ccccc2)cc1-c1cccc(C[C@H](NC(=O)[C@H]2CC[C@H](CN)CC2)C(=O)Nc2ccc3[nH]c(=O)[nH]c3c2)c1 [Example 12, hydrochloride] equals 0.51
